Where do these numbers come from? They come from patent US20250361288A1.

- target_entity: T1, mouse HVEM extracellular domain fused with an Fc fragment at the C-terminus (mouse, UniProt Q80WM9 39-206, limits assumed)
- T1 construct: extracellular domain; Bought; also called mHVEM; not shown: Fc fragment at the C-terminus
- T1 sequence (looked up): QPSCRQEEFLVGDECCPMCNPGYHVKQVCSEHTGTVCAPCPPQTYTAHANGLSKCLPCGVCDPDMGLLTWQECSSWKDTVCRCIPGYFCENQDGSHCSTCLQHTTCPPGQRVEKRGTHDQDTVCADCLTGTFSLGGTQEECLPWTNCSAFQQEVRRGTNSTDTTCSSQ
- test_description: phage ELISA
reported_metric: binding result

In the examples that follow, each entry is paired with its recorded binding result.
Q) Param item = LIGHT-29 (ligand, Printed mutations: S160N, L220S; Soluble protein carries an N-terminal His tag) DGPAGSWEQLIQERRSHEVNPAAHLTGANSSLTGSGGPLLWETQLGLAFLRGLSYHDGALVVTKAGYYYIYSKVQLGGVGCPLGLANTITHGLYKRTPRYPEELELLVSQQSPCGRATSSSRVWWDSSFLGGVVHLEAGEKVVVRVSDERLVRLRDGTRSYFGAFMV ; retrieve measured binding result.
A) binds

Q) Param item = LIGHT-10 (ligand, Printed mutations: G150S, T161P, L220S; Soluble protein carries an N-terminal His tag) DGPAGSWEQLIQERRSHEVNPAAHLTGANSSLTGSGGPLLWETQLGLAFLRGLSYHDGALVVTKAGYYYIYSKVQLSGVGCPLGLASPITHGLYKRTPRYPEELELLVSQQSPCGRATSSSRVWWDSSFLGGVVHLEAGEKVVVRVSDERLVRLRDGTRSYFGAFMV ; retrieve measured binding result.
A) binds

Q) Param item = LIGHT-47 (ligand, Printed mutations: L126M, A190V, H208Y; Soluble protein carries an N-terminal His tag) DGPAGSWEQLIQERRSHEVNPAAHLTGANSSLTGSGGPLLWETQLGLAFLRGMSYHDGALVVTKAGYYYIYSKVQLGGVGCPLGLASTITHGLYKRTPRYPEELELLVSQQSPCGRVTSSSRVWWDSSFLGGVVYLEAGEKVVVRVLDERLVRLRDGTRSYFGAFMV ; retrieve measured binding result.
A) binds

Q) Param item = LIGHT-16 (ligand, Printed mutations: Q117H, L158M, E213D; Soluble protein carries an N-terminal His tag) DGPAGSWEQLIQERRSHEVNPAAHLTGANSSLTGSGGPLLWETHLGLAFLRGLSYHDGALVVTKAGYYYIYSKVQLGGVGCPLGMASTITHGLYKRTPRYPEELELLVSQQSPCGRATSSSRVWWDSSFLGGVVHLEAGDKVVVRVLDERLVRLRDGTRSYFGAFMV ; retrieve measured binding result.
A) binds

Further cases:
Q) Param item = LIGHT-26 (ligand, Printed mutations: S160H, L220S, E222Q; Soluble protein carries an N-terminal His tag) DGPAGSWEQLIQERRSHEVNPAAHLTGANSSLTGSGGPLLWETQLGLAFLRGLSYHDGALVVTKAGYYYIYSKVQLGGVGCPLGLAHTITHGLYKRTPRYPEELELLVSQQSPCGRATSSSRVWWDSSFLGGVVHLEAGEKVVVRVSDQRLVRLRDGTRSYFGAFMV ; retrieve measured binding result.
A) binds
